# Measured Target: human β-Secretase (sBACE-Fc) (Homo sapiens (Human))
# Sequence (P56817 22-460): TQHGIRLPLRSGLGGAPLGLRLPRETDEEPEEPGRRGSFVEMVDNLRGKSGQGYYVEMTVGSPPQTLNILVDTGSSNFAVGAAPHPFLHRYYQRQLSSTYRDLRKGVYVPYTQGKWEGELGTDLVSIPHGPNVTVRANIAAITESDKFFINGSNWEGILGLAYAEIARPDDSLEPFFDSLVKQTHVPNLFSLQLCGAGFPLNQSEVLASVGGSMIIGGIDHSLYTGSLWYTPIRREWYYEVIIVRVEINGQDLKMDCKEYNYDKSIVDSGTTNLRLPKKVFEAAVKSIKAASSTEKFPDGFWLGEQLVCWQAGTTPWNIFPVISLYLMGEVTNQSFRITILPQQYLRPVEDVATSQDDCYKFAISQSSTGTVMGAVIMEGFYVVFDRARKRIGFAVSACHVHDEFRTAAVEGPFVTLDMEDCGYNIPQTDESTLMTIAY
# Method: Diluted TR-FRET assay
# Format: biochemical
# Measurement Setup: diluted TR-FRET assay: 50 times less enzyme, 6.5 h reaction time at r.t.; read-out: IC50 in TR-FRET assay (IC50 from the diluted FRET assay)
pIC50: −log10 of the molar value.
# reported pIC50; entries follow

Compound	Measured Target	pIC50
CO[C@H]1CC[C@]2(CC1)Cc1ccc(OCC3CC3)cc1C21N=C(C)C(N)=N1 (some centres unmarked)	human β-Secretase (sBACE-Fc) (Homo sapiens (Human))	8.13
CO[C@H]1CC[C@]2(CC1)Cc1ccc(OCC3CC3(F)F)cc1C21N=C(C)C(N)=N1 (some centres unmarked)	human β-Secretase (sBACE-Fc) (Homo sapiens (Human))	7.89
CO[C@H]1CC[C@]2(CC1)Cc1ccc(OCC3CC3)cc1[C@@]21N=C(C)C(N)=N1 (single isomer, unassigned; isomer 1) [4, isomer 1]	human β-Secretase (sBACE-Fc) (Homo sapiens (Human))	8.43
CO[C@H]1CC[C@]2(CC1)Cc1ccc(OCC3(C)CC3)cc1C21N=C(C)C(N)=N1 (some centres unmarked)	human β-Secretase (sBACE-Fc) (Homo sapiens (Human))	7.74
CO[C@H]1CC[C@]2(CC1)Cc1ccc(OCCC3CC3)cc1C21N=C(C)C(N)=N1 (some centres unmarked)	human β-Secretase (sBACE-Fc) (Homo sapiens (Human))	8.43
